Can you tell me IC50 for the items I'm about to list?
ASSAY_SYSTEM: DAGLB (Mus musculus, UniProt Q91WC9)
Sequence (Q91WC9 whole entry): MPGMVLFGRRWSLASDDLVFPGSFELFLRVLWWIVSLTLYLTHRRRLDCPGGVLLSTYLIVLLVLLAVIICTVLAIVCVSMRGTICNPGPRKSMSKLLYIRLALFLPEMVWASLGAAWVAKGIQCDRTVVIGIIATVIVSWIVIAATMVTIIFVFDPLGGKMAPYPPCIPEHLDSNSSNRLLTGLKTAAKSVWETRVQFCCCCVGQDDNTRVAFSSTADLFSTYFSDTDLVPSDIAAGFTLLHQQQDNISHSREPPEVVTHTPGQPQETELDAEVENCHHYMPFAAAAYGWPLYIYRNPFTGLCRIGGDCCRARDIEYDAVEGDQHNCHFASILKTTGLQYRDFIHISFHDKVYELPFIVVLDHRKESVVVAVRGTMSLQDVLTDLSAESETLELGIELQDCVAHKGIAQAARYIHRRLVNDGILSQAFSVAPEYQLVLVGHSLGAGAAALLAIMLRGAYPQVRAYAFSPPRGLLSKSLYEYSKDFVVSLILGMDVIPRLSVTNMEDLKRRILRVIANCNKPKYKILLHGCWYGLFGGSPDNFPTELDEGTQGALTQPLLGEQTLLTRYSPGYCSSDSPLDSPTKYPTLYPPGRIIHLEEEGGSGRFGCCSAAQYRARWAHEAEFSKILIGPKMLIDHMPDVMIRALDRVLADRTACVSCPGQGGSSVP
PROCEDURE_TEXT: In situ inhibition in Neuro2A cells, competitive ABPP with HT-01
Assay type: cell-based
Design: from tissue; host or cells: thioglycolate-elicited peritoneal macrophages of treated mice
MEASUREMENT_PARAMETERS: 4 hours

Each of the following entries comes with a recorded value; kindly state IC50 for each.
1. COc1ccccc1-c1ccc(-c2cn(C(=O)N3CCCCC3Cc3ccccc3)nn2)cc1 (centres unmarked)
2. O=C(N1CCCCC1Cc1ccccc1)n1cc(-c2ccc(-c3ccccc3)cc2)nn1 (centres unmarked)

Reply |
1: 11 nM; 2: 14 nM

* * *

ASSAY_SYSTEM: DAGLB (Mus musculus)
PROCEDURE_TEXT: Gel-based ABPP assay against recombinant DAGLB (HEK293T-DAGLB lysates)
Type: biochemical
Parameters: Full-length cDNAs encoding serine hydrolases were purchased from Open Biosystems; V5; host or cells: HEK293T
OBSERVATION_TYPE: IC50

Ask | // returns reported IC50 for input O=C(N1CCCCC1Cc1ccccc1)n1cc(C(O)(c2ccccc2)c2ccccc2)nn1 (stereo not shown) [AA43-2]
Reply | ~0.2 µM
